Kindly state inhibition zone (IZ) for each of the entries shown.
Assay: Antifungal activity against Chrysosporium keratinophilum MTCC 2827 at 500 ug/mL after 72 hrs by well plate method
Format: functional
Answers are plain numbers, in mm.

INSERT INTO results (compound, observed_result) VALUES
  ('COc1cc(C2CC(=NOC(=O)c3cc(OC)c(OC)c(OC)c3)CC(c3ccc(O)c(OC)c3)N2C)ccc1O (centres undefined)', 3);

Give me inhibition zone (IZ) for each of these compounds, listed below.
1. COc1cc(C2CC(=NOC(=O)c3ccc(O)cc3)CC(c3ccc(O)c(OC)c3)N2C)ccc1O (centres undefined)
2. COc1cc(C2CC(=NOC(=O)c3cc(O)c(O)c(O)c3)CC(c3ccc(O)c(OC)c3)N2C)ccc1O (centres undefined)
3. COc1cc(C2CC(=NOC(=O)c3ccccc3)CC(c3ccc(O)c(OC)c3)N2C)ccc1O (centres undefined)

RESULT:
1: 2; 2: 3; 3: 2
